meta.source: ChEMBL document CHEMBL1135850

- Target: Neutrophil elastase (Homo sapiens)
- Sequence (P08246 whole entry): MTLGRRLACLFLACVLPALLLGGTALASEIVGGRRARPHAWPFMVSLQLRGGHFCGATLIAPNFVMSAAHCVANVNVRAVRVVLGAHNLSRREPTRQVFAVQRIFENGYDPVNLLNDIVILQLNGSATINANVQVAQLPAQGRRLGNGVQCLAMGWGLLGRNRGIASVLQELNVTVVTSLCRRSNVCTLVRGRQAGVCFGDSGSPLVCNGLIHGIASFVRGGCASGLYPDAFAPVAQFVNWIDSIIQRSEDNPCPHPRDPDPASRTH
- Protocol text: Inhibitory concentration against Human leukocyte Elastase
Entries and their IC50 values follow.
Quick note: give the figure in nM, leave out the unit.

Give IC50 for the following compound: "CC(C)[C@H](NC(=O)[C@H](CCC(=O)O)NC(=O)[C@@H](N)CC(=O)O)C(=O)N[C@H](C(=O)N1CCC[C@@H]1C(=O)N[C@@H](CCc1ccc(-c2ccccc2)cc1)B1O[C@@H]2C[C@@H]3C[C@@H](C3(C)C)[C@]2(C)O1)C(C)C"
900

As a next step, examine the compound that follows.
For the compound "COc1ccc(CC[C@H](NC(=O)[C@H]2CCCN2C(=O)[C@@H](NC(=O)[C@@H](NC(=O)[C@H](CCC(=O)O)NC(=O)[C@@H](N)CC(=O)O)C(C)C)C(C)C)B2O[C@@H]3C[C@@H]4C[C@@H](C4(C)C)[C@]3(C)O2)cc1" , give its reported IC50.
560
